Origin of measurements: PubChem BioAssay (NCI)

test system: NCI-H522 lung; assay: NCI tumour cell line growth inhibition, 48 h

{"columns": ["Molecule", "TGI"],
 "data": [
  ["c1ccc2c3c(ccc2c1)-c1[nH]ncc1CCO3", "> 81.5 µM"],
  ["NC(=O)CC1OC(=O)Cc2cc3c(c(O)c21)C(=O)c1c(O)cccc1C3=O (stereo unspecified)", "> 100 µM"],
  ["COC(=O)CCC(=O)Nc1ccc(Cl)cc1C", "> 100 µM"],
  ["C=C1C(C(=O)OC)[C@H]1C(=O)OC (stereo partly specified)", "> 100 µM"],
  ["NCC(=O)Nc1ccccc1", "> 100 µM"],
  ["O=S(=O)(N=C1C(Cl)=C(Cl)C(=NS(=O)(=O)c2ccccc2)C(Cl)=C1Cl)c1ccccc1", "29.7 µM"],
  ["CO/C=C(/C(=O)OC)[C@@H]1C[C@@H]1c1ccc2ccccc2c1", "28.5 µM"],
  ["O=C(OC1=CCN(Br)C1=O)C1=C(O)C(=O)N(Br)C1", "31.4 µM"],
  ["C[C@H](Nc1nc(N)c(N=O)c(=O)n1C)C(=O)O", "> 10 µM"],
  ["COc1cc(CCC[P+](c2ccccc2)(c2ccccc2)c2ccccc2)c(OC)c2c1OCO2", "12.1 µM"],
  ["O=C(Cc1ccc2ccccc2c1)NCc1ccc(C(=O)NCCc2ccccc2)cc1", "> 100 µM"]
]}

###

system: SF-539 CNS; assay: NCI tumour cell line growth inhibition, 48 h

{"columns": ["Compound", "TGI"],
 "data": [
  ["Oc1ccccc1-c1nn(CNc2ccc(Cl)cc2)c(=S)o1", "> 100 µM"],
  ["CCOC(=O)C12CCC(=O)N1N(C)c1ncccc1N2 (stereo unspecified)", "> 100 µM"],
  ["Cn1c(-c2ccc(C=O)o2)ccc1-c1ccc(C=O)o1", "63.7 µM"],
  ["CSC(=NC(=O)c1ccccc1Cl)SCCSC(=NC(=O)c1ccccc1Cl)SC", "> 100 µM"],
  ["Fc1cccc(COc2ccc(Nc3ncnc4onc(-c5ccccc5)c34)cc2)c1", "1.09 µM"],
  ["CN(C)c1ccc(/C=c2\\sc3nnc(-c4ccco4)n3c2=O)cc1", "> 100 µM"],
  ["CC(C)(C)C(=O)N1C(C(=O)O)Cc2ccccc2[C@@H]1Cc1ccccc1 (stereo partly specified)", "> 100 µM"],
  ["O=C1c2ccccc2N(O)C1(c1ccccc1)C1CCCC=C1N1CCOCC1 (stereo unspecified)", "> 100 µM"],
  ["NS(=O)(=O)c1ccc(NC(=O)N/N=C/c2ccccc2[N+](=O)[O-])cc1", "> 100 µM"],
  ["Cc1c(Cn2c(C)nc3c(C(=O)O)cc(N4CCOCC4)cc32)cccc1C(F)(F)F", "> 100 µM"],
  ["CC(C)(C)OC(=O)NCC(CNC(=O)OC(C)(C)C)C(N)=O", "> 100 µM"]
]}

###

tested on: UACC-62 melanoma; assay: NCI tumour cell line growth inhibition, 48 h
Outcome Measure: TGI (µM)

{"columns": ["Molecule Smiles", "Outcome Measure", "Limit Operator", "Quantitative Result"],
 "data": [
  ["COc1cc(CCC[P+](c2ccccc2)(c2ccccc2)c2ccccc2)c(OC)c2c1OCO2", "TGI", "=", 4.27],
  ["Cn1c(-c2ccco2)ccc1-c1ccc(C=O)o1", "TGI", ">", 100],
  ["Cc1ccc(CNc2ccc3nc(CCC4CCCCC4)[nH]c3c2)cc1", "TGI", "=", 3.4],
  ["COC(=O)[C@H](Cc1ccccc1)NC(=O)c1ccc(CNC(=O)/C=C/c2ccc(OCc3ccccc3)cc2)cc1", "TGI", "=", 18.6],
  ["C#C[C@]1(O)CC[C@H]2[C@@H]3CCC4=C/C(=N\\OCCN5CCCCC5)CC[C@]4(C)[C@H]3CC[C@@]21C", "TGI", "=", 10.7],
  ["C(=N\\c1nc2cc3sc(/N=C/c4ccccc4)nc3cc2s1)/c1ccccc1", "TGI", ">", 100],
  ["C=C(C)[C@@H]1CC[C@]2(CO)CC[C@]3(C)[C@H](CC[C@@H]4[C@@]5(C)CCCNC(C)(C)[C@@H]5CC[C@]43C)[C@@H]12", "TGI", "=", 3.25],
  ["CC1=C([Te]c2ccccc2)C(=O)c2ccccc2C1=O", "TGI", "=", 3.8],
  ["O=S1(=O)c2ccccc2N(O)C2=NCCN21", "TGI", ">", 100]
]}
